system: hvCAS (human ventricular cardiac anisotropic sheet of HES2 hESC-derived ventricular cardiomyocytes); assay type: cell-based; conditions: human, pH 7.4
VALUE_TYPE: Chirality of Re-entry: Multi-origin
# respond with the number and nothing more

Query: Entry COc1cc(N)c(Cl)cc1C(=O)NC1CCN(CCCOc2ccc(F)cc2)CC1OC (centres unmarked) [CISA, cisapride] : reported Chirality of Re-entry: Multi-origin = ?
Response: 1

Query: Entry CC(C)(C)c1ccc(C(O)CCCN2CCC(C(O)(c3ccccc3)c3ccccc3)CC2)cc1 (centres unmarked) : reported Chirality of Re-entry: Multi-origin = ?
Response: 0

Query: Entry O=C(NCC1CCCCN1)c1cc(OCC(F)(F)F)ccc1OCC(F)(F)F (centres unmarked) [FLE, flecainide] : reported Chirality of Re-entry: Multi-origin = ?
Response: 0

Query: Entry Cc1cccc(C)c1NC(=O)C(C)N (centres unmarked) [TOC, tocainide] : reported Chirality of Re-entry: Multi-origin = ?
Response: 0

Query: Entry CCN(CC)CCNC(=O)c1ccc(N)cc1 [PROC, procainamide] : reported Chirality of Re-entry: Multi-origin = ?
Response: 0

====

Please provide measured Chirality of Re-entry: Figure-of-eight for the entries that follow.
tested on: hvCAS (human ventricular cardiac anisotropic sheet of HES2 hESC-derived ventricular cardiomyocytes); assay type: cell-based; details: human, pH 7.4
# respond with the number and nothing more

Query: Entry CC(C)(C)c1ccc(C(O)CCCN2CCC(C(O)(c3ccccc3)c3ccccc3)CC2)cc1 (centres unmarked) : reported Chirality of Re-entry: Figure-of-eight = ?
Response: 0

Query: Entry Cc1cccc(C)c1NC(=O)C(C)N (centres unmarked) [TOC, tocainide] : reported Chirality of Re-entry: Figure-of-eight = ?
Response: 1

Query: Entry COc1cc(N)c(Cl)cc1C(=O)NC1CCN(CCCOc2ccc(F)cc2)CC1OC (centres unmarked) [CISA, cisapride] : reported Chirality of Re-entry: Figure-of-eight = ?
Response: 0

Query: Entry O=C(NCC1CCCCN1)c1cc(OCC(F)(F)F)ccc1OCC(F)(F)F (centres unmarked) [FLE, flecainide] : reported Chirality of Re-entry: Figure-of-eight = ?
Response: 1

Query: Entry CCN(CC)CCNC(=O)c1ccc(N)cc1 [PROC, procainamide] : reported Chirality of Re-entry: Figure-of-eight = ?
Response: 0

====

Please provide measured No. of Re-entry, 3rd dose for the entries that follow.
test system: hvCAS (human ventricular cardiac anisotropic sheet of HES2 hESC-derived ventricular cardiomyocytes); format: cell-based; details: human, pH 7.4
# respond with the number and nothing more

Query: Entry O=C(NCC1CCCCN1)c1cc(OCC(F)(F)F)ccc1OCC(F)(F)F (centres unmarked) [FLE, flecainide] : reported No. of Re-entry, 3rd dose = ?
Response: 0

Query: Entry COc1cc(N)c(Cl)cc1C(=O)NC1CCN(CCCOc2ccc(F)cc2)CC1OC (centres unmarked) [CISA, cisapride] : reported No. of Re-entry, 3rd dose = ?
Response: 3

Query: Entry CCN(CC)CCNC(=O)c1ccc(N)cc1 [PROC, procainamide] : reported No. of Re-entry, 3rd dose = ?
Response: 0

Query: Entry Cc1cccc(C)c1NC(=O)C(C)N (centres unmarked) [TOC, tocainide] : reported No. of Re-entry, 3rd dose = ?
Response: 1

Query: Entry CC(C)(C)c1ccc(C(O)CCCN2CCC(C(O)(c3ccccc3)c3ccccc3)CC2)cc1 (centres unmarked) [TERF, terfenadine] : reported No. of Re-entry, 3rd dose = ?
Response: 4
